tested on: V. cholerae DH231 (delta cqsS) luciferase light production; experiment: Confirmatory dose response, V. cholerae DH231 delta cqsS, luciferase light activation (AID 686931)
Measured AC40 accompanies every entry in the list below.

O=C(Nc1nnc(-c2ccc3c(c2)OCCO3)o1)C1CCCCCC1 :: 10.5 µM

For V. cholerae DH231 (delta cqsS) luciferase light production, give the measured AC40 of the entry "Cc1ccc2cc3c(NC(=O)C4CCCC4)nn(C)c3nc2c1" 37.9 µM

For V. cholerae DH231 (delta cqsS) luciferase light production, give the measured AC40 of the entry "Cn1nc(NC(=O)c2ccco2)c2cc3ccccc3nc21" 4.18 µM
